Just for reference, PubChem BioAssay AID2205 is where these values come from.

experiment: tubulin staining increase by stabilizing compounds – imaging, high-content imaging, primary screen (AID 2205); conditions: HeLa tubulin immunostaining HCS, 24 h, at 10 µM; measured here: nuclear condensation Hoechst responders, stronger effect = higher value, share of cells brighter than vehicle mean+2SD
In all, about 200,000 compounds went through this assay and about 1,600 (0.8%) were called active. Many of the other results were omitted from the sample, so actives are more common in it than they were.
% Hoechst-high responders values for the molecules below.

molecule: O=C1CC(N2CCN(c3ccc(F)cc3)CC2)C(=O)N1c1ccccc1 (stereo not given)
% Hoechst-high responders: 1.93%
--
molecule: Cc1csc(NC(=O)Nc2ccccc2[N+](=O)[O-])n1
% Hoechst-high responders: 2.72%
--
molecule: Cc1ccc(S(=O)(=O)NC(=O)N2CCCC(C)(C)C2)cc1
% Hoechst-high responders: 0.922%
--
molecule: Cc1ccc(S(=O)(=O)C2(S(=O)(=O)c3ccc(C)cc3)CCCC2)cc1
% Hoechst-high responders: 39.1%
--
molecule: O=C(Nc1ccn(Cc2ccccc2)n1)c1n[nH]c([N+](=O)[O-])c1Cl
% Hoechst-high responders: 13.3%

Switching to the query record.
Input line: // query % Hoechst-high responders value for entry CC(C)C(=O)Nc1cccc(NC(=S)NC(=O)C(c2ccccc2)c2ccccc2)c1
Output line: 44%

----------
assay: tubulin staining increase by stabilizing compounds – imaging, high-content imaging, primary screen (AID 2205); settings: HeLa tubulin immunostaining HCS, 24 h, at 10 µM; measured here: nuclear condensation Hoechst responders, stronger effect = higher value, share of cells brighter than vehicle mean+2SD
Screen size: about 200,000 compounds; about 1,600 (0.8%) were called active. This is one part of a sample in which actives are shown more often than they occur.
# key: entry, value: % Hoechst-high responders
# value in %; strip the unit string

Guide cases for % Hoechst-high responders, answers given:
smilesRepresentation: O=C(CCN1C(=O)/C(=C/c2cccs2)SC1=S)NNC(=O)c1cccc(O)c1
measurementUnit: %
% Hoechst-high responders: 1.28
//
smilesRepresentation: O=c1cc(-c2ccccc2)[nH]c2cc(F)ccc12
measurementUnit: %
% Hoechst-high responders: 48.5
//
smilesRepresentation: CC(C)C(=O)NC(=S)Nc1ccccc1F
measurementUnit: %
% Hoechst-high responders: 1.63
//
smilesRepresentation: Cc1c(CN2CCC(CO)(CCOc3ccccc3)CC2)[nH]c2ccc(Cl)cc12
measurementUnit: %
% Hoechst-high responders: 7.79
//
smilesRepresentation: Cc1nn(C)cc1/C=N/NC(=O)c1sc2ccccc2c1Cl
measurementUnit: %
% Hoechst-high responders: 0.999

We now examine a further molecule.
Input line: Which % Hoechst-high responders reading was recorded for the molecule CCc1ccccc1NC(=O)Cc1cn(C)c2ccccc12 ?
Output line: 1.88

----------
assay: tubulin staining increase by stabilizing compounds – imaging, high-content imaging, primary screen (AID 2205); details: HeLa tubulin immunostaining HCS, 24 h, at 10 µM; stronger effect = higher value, share of cells brighter than vehicle mean+2SD;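 as to % tubulin-high responders: anti alpha tubulin signal scored within the nucleus-defined area of each cell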
About 1,600 (0.8%) of roughly 200,000 compounds were called active. The full list was thinned out, with actives kept by preference.
Tag: Fulfilled if measured % tubulin-high responders is not below 3%, Not fulfilled if it is.

Here's what some known entries look like.
compound: CCCCn1c(N)c(N(CC)C(=O)/C=C/c2ccco2)c(=O)[nH]c1=O
groupLabel: Fulfilled

compound: Cc1noc(C)c1S(=O)(=O)Nc1ccc(C(=O)N2CCN(c3ccc(F)cc3)CC2)cc1
groupLabel: Not fulfilled

compound: CC(=O)N1C(=O)/C(=C2\SC(=S)N(NC(=O)c3ccc(O)cc3)C2=O)c2ccccc21
groupLabel: Not fulfilled

compound: Cc1csc(CN(C)C(=O)CC2C(=O)NCCN2CC(C)(C)C)n1 (stereo not given)
groupLabel: Not fulfilled

compound: CC(C)C(=O)Nc1cccc(NC(=S)NC(=O)C(c2ccccc2)c2ccccc2)c1
groupLabel: Fulfilled

compound: CCCCC(=O)NNC(=S)NC(=O)C(c1ccccc1)c1ccccc1
groupLabel: Not fulfilled

compound: O=C(/C(=C/c1cccc(Cl)c1)c1nc2ccccc2[nH]1)c1ccccc1
groupLabel: Fulfilled

compound: CSc1ncccc1C(=O)N1CCCC(CCC(=O)NCc2ccccc2F)C1 (stereo not given)
groupLabel: Not fulfilled

Then this compound:
Input line: Form field: % tubulin-high responders at least 3%? Entry: Cc1oc2cc([N+](=O)[O-])c(O)c([N+](=O)[O-])c2c1C(=O)c1ccc(Br)cc1
Output line: Fulfilled
